Hi there, I'd appreciate the recorded growth for every entry that follows.
Test system: SK-MEL-2 melanoma
EXPERIMENT_SUMMARY: NCI-60 one-dose screen, 48 h (100 = growth as untreated, 0 = no growth, -100 = all killed)
COND: 10 µM
This is part of a sample that, as a whole, favours compounds with a hit. Of some 83,000 tested, about 20% had one in any assay.
Could you give me the number in %? Just the number is fine.

Per the records, this compound ( CCOC(=O)/C(C#N)=C/c1cccc(C)c1 ) has growth equal to 106

Per the records, this compound ( Cc1ccc(C(=O)N/N=C/c2ccc3c(c2)OCO3)cc1 ) has growth equal to 90.4

Per the records, this compound ( CCCC1(c2ccccc2)NC(=O)NC1=O (stereo not given) ) has growth equal to 103

Per the records, this compound ( CC(C)=CC(=O)OC(=O)C=C(C)C ) has growth equal to 108

Per the records, this compound ( Cc1ccccc1N=C(c1ccccc1)C1C(=O)c2ccccc2C1=O ) has growth equal to 59.9

Per the records, this compound ( CC(=O)c1c[nH]c2ccccc12 ) has growth equal to 161

Per the records, this compound ( Cc1ncc(C#N)c(N)n1 ) has growth equal to 106

Per the records, this compound ( O=C(c1ccc(O)cc1)c1ccc(O)cc1 ) has growth equal to 101

Per the records, this compound ( COc1cc2cc(c1Cl)N(C)C(=O)C[C@H](OC(=O)[C@H](C)N(C)C(C)=O)[C@]1(C)O[C@H]1[C@H](C)[C@@H]1C[C@@](O)(NC(=O)O1)[C@H](OC)C=C/C=C(\C)C2 ) has growth equal to 55.5

Per the records, this compound ( CCCC[P+](c1ccccc1)(c1ccccc1)c1ccccc1 ) has growth equal to 75.7

Per the records, this compound ( CC(=O)OCC1=CC2OC(=O)C3=COC(OC4OC(CO)C(O)C(O)C4O)C1C32 (stereo not given) ) has growth equal to 138

Per the records, this compound ( NCCCN ) has growth equal to 122

Per the records, this compound ( C/C(=N\O)C1(O)CCCCC1 ) has growth equal to 82.9

Per the records, this compound ( CC1OC(Oc2c(-c3ccc(O)c(O)c3)oc3cc(O)cc(O)c3c2=O)C(O)C(O)C1O (stereo not given) ) has growth equal to 104

Per the records, this compound ( CN(c1ccccc1)c1ncnc2c1ncn2C ) has growth equal to 100

Per the records, this compound ( CN(C)CCN(Cc1ccccc1)c1ccccc1 ) has growth equal to 124

Per the records, this compound ( Oc1ccc(O)cc1 ) has growth equal to 104

Per the records, this compound ( CC(=O)Cc1ccc(-c2ccccc2)cc1 ) has growth equal to 102

Per the records, this compound ( CCNc1nc2c(cnn2C)c(=O)[nH]1 ) has growth equal to 103

Per the records, this compound ( S=c1[nH]ccn1-c1ccccc1Cl ) has growth equal to 118

---

Tested on: NCI-H522 lung
EXPERIMENT_SUMMARY: NCI-60 one-dose screen, 48 h (100 = growth as untreated, 0 = no growth, -100 = all killed)
COND: 10 µM
Experimental: Growth inhibition of the NCI-H522 human Non-Small Cell Lung tumor cell line is measured as a screen for anti-cancer activity. Cells are grown in 96 well plates and exposed to the test compound for 48 hours. Compounds are tested at a single concentration, which is 10^-5 M for most compounds. The reported endpoint is percent growth (GI% or GIPRCNT), where numbers from 0 - 100% represent growth inhibition, and numbers from -100% - 0 represent cell death. […]
Compounds without any hit were thinned out: in the full panel of roughly 83,000, 20% have a hit.
Would you please tag the item Met when its growth is 80% or above, and Not met when it is below?

## Input API: above_or_equal(metric=growth, cutoff=80%) for item COc1ccccc1NC(=O)c1cc2cc(Br)ccc2cc1O
## Output Not met

## Input API: above_or_equal(metric=growth, cutoff=80%) for item CCCCCCCCCCC(C)Br (stereo unspecified)
## Output Met

## Input API: above_or_equal(metric=growth, cutoff=80%) for item CC(C)COC(=O)COC(=O)OCCOCCOC(=O)OCC(=O)OCC(C)C
## Output Met

## Input API: above_or_equal(metric=growth, cutoff=80%) for item c1csc(-c2cc(-c3cc(-c4cccs4)[nH]n3)n[nH]2)c1
## Output Met

## Input API: above_or_equal(metric=growth, cutoff=80%) for item O=C1Cc2cc(O)ccc2O1
## Output Met

## Input API: above_or_equal(metric=growth, cutoff=80%) for item CC(=O)OC1CC2C(C)(C)OC3CC(=O)OCC32C2CCC3(C)C(=CCC3c3ccoc3)C12C (stereo unspecified)
## Output Not met

## Input API: above_or_equal(metric=growth, cutoff=80%) for item CNC(=S)NC(C)(C)C
## Output Met

## Input API: above_or_equal(metric=growth, cutoff=80%) for item Cc1ccc(Cl)cc1NC(=O)N(C)CCO
## Output Not met

## Input API: above_or_equal(metric=growth, cutoff=80%) for item CCCCNC1(C#N)CCN(Cc2ccccc2)CC1
## Output Met

## Input API: above_or_equal(metric=growth, cutoff=80%) for item CN(C)c1ccc2oc(=O)c3ccccc3c2c1
## Output Met

## Input API: above_or_equal(metric=growth, cutoff=80%) for item COc1cc2c3c(n(C)c(=O)c2cc1OC)-c1cc2c(cc1C3=O)OCO2
## Output Not met

## Input API: above_or_equal(metric=growth, cutoff=80%) for item O=c1[nH]cc(Cl)cc1O
## Output Not met

## Input API: above_or_equal(metric=growth, cutoff=80%) for item O=C1c2ccccc2C(=O)c2c1ccc(C(=O)O)c2[N+](=O)[O-]
## Output Met

## Input API: above_or_equal(metric=growth, cutoff=80%) for item CCOC(=O)c1[nH]c(C)c(C(=O)O)c1C
## Output Met

## Input API: above_or_equal(metric=growth, cutoff=80%) for item COc1ccccc1N=Nc1c(O)ccc2cc(S(=O)(=O)O)ccc12
## Output Met

---

Tested on: SF-295 CNS
EXPERIMENT_SUMMARY: NCI-60 one-dose screen, 48 h (100 = growth as untreated, 0 = no growth, -100 = all killed)
COND: 10 µM
This is part of a sample that, as a whole, favours compounds with a hit. Of some 83,000 tested, about 20% had one in any assay.
METRIC_NAME: growth (%)
Could you give me the number in %? Just the number is fine.

Per the records, this compound ( O=C1OC(c2ccc(F)cc2)CC1CN1CCOCC1 (stereo not drawn) ) has growth equal to 89.9

Per the records, this compound ( Cc1c(C(=O)O)c(=O)n(-c2ccccc2)n1C ) has growth equal to 91.4

Per the records, this compound ( O=C(Cc1nc2ccc([N+](=O)[O-])cc2nc1CC(=O)c1cccnc1)c1cccnc1 ) has growth equal to 54.5

Per the records, this compound ( CC(C)OC(=O)c1cc(NC(=S)OC(C)C)ccc1Cl ) has growth equal to 83.5

Per the records, this compound ( Clc1ccc(-c2n[nH]c3c2Cc2ccccc2-3)cc1Cl ) has growth equal to 99.5

Per the records, this compound ( CCOC(=O)C(C#N)Cc1ccccc1 (stereo not drawn) ) has growth equal to 104

Per the records, this compound ( FC(F)(F)c1ccc2c(c1)N(CCCN1CCN(C3CC3)CC1)c1ccccc1S2 ) has growth equal to 3.21

Per the records, this compound ( C=CC(=O)OCCCCCCCC ) has growth equal to 104

---

Hi there, I'd appreciate the recorded growth for every entry that follows.
Test system: HOP-62 NSCLC
EXPERIMENT_SUMMARY: NCI-60 one-dose screen, 48 h (100 = growth as untreated, 0 = no growth, -100 = all killed)
COND: 10 µM
The panel holds about 83,000 compounds, 20% with a hit somewhere; the sample as a whole holds those more often.
Could you give me the number in %? Just the number is fine.

Per the records, this molecule ( CS(=O)CC1=NC(=N)N=C1CS(C)=O (configuration not stated) ) has growth equal to 100

Per the records, this molecule ( N#CSc1cc(S(N)(=O)=O)ccc1N ) has growth equal to 104

Per the records, this molecule ( O=C(O)c1cccc([N+](=O)[O-])c1O ) has growth equal to 96

Per the records, this molecule ( CC(C)(C)n1nc(C2CC2)c(Br)c1NC(=O)c1ccccc1F ) has growth equal to 92.5

Per the records, this molecule ( Nc1nc(N)c(N=Nc2ccc(C(=O)O)cc2)c(N)n1 ) has growth equal to 106

Per the records, this molecule ( CCOC(=O)C(C#N)Cc1ccccc1 (configuration not stated) ) has growth equal to 116

Per the records, this molecule ( COc1ccc2c(c1)CCc1c-2n[nH]c1-c1[nH]nc2c1CCc1cc(OC)ccc1-2 ) has growth equal to 66

Per the records, this molecule ( [O-][N+](=Nc1cccc(Cl)c1)c1cccc(Cl)c1 ) has growth equal to 107

Per the records, this molecule ( O=S(=O)(O)CC(O)CN1CCN(CCO)CC1 (configuration not stated) ) has growth equal to 110

Per the records, this molecule ( CCOC(=O)C/C(C)=N\O ) has growth equal to 90.2

Per the records, this molecule ( Nc1ccc(N=Nc2ccc(O)cc2)c(N)n1 ) has growth equal to 99.7

Per the records, this molecule ( Cc1cc(/C=C/c2ccc3cc(N(C)C)ccc3[n+]2C)c(C)n1-c1ccccc1 ) has growth equal to -81.5

Per the records, this molecule ( Cc1cc2nc(CO)[nH]c2cc1C ) has growth equal to 99.4

Per the records, this molecule ( CCCCCCCCO ) has growth equal to 99.6

Per the records, this molecule ( CC(=O)c1ccc(C(C)(C)C)cc1 ) has growth equal to 91.9

Per the records, this molecule ( CCOC(=O)Nc1cc2c(c(N)n1)N=C(c1ccccc1)CO2 ) has growth equal to 50

Per the records, this molecule ( CCC(=O)Oc1ccc(OC)cc1 ) has growth equal to 98

Per the records, this molecule ( CCN1C(=O)/C(=C/C=C/N(C)c2ccccc2)SC1=S ) has growth equal to 36.2

Per the records, this molecule ( CN(C)/N=C/c1ccccc1O ) has growth equal to 109

Per the records, this molecule ( O=c1cc(-c2ccccc2)nc2cc(-c3ccco3)[nH]n12 ) has growth equal to 88.3

Per the records, this molecule ( COC1=CC(=O)c2nc(Cl)ccc2C1=O ) has growth equal to 89.4

Per the records, this molecule ( CCCC(=O)Nc1ccc2c(c1)CN1C(=O)c3ccccc3C1=N2 ) has growth equal to 104

Per the records, this molecule ( O=C(Nc1ccccc1C(=O)NCC1CC1)c1cccs1 ) has growth equal to 103

Per the records, this molecule ( OC1CCCc2ccccc21 (configuration not stated) ) has growth equal to 104

Per the records, this molecule ( N#C/C(=C\c1cc(O)c(O)c(O)c1)C(N)=O ) has growth equal to 97.2

Per the records, this molecule ( O=C1C=CC2=C3c4cc(O)c(O)cc4CC3(O)COC2=C1O (configuration not stated) ) has growth equal to 100

Per the records, this molecule ( NC(C(=O)O)c1ccc([N+](=O)[O-])cc1 (configuration not stated) ) has growth equal to 96.5

Per the records, this molecule ( S=c1nn[nH]c2ccccc12 ) has growth equal to 98

Per the records, this molecule ( CCCCC1(CC)COC(CCC)OC1 (configuration not stated) ) has growth equal to 95.9

Per the records, this molecule ( NC(CSC(c1ccccc1)(c1ccccc1)c1ccccc1)C(=O)O (configuration not stated) ) has growth equal to 44.5

Per the records, this molecule ( C[C@@H](c1ccccc1)[C@@H](C(=O)O)c1ccccc1 ) has growth equal to 99.7

Per the records, this molecule ( CSc1[nH]c(=O)ncc1F ) has growth equal to 109
